Parameter: cytotoxicity at 70.5 h. Scope: all listed entries.
- assay.details: Human HepG2 cell viability assay in 384 well format
- Assay type: toxicity, cell-based
- Design: dose 125 nL, time 70.5 hour; concentration not given beside the values
- measurement.context: HepG2 cells, read-out: Inhibition
endpoint: cytotoxicity at 70.5 h (%)

- CC1CCCCN1c1nc2c(c(=O)[nH]1)CCN(Cc1ccc(O)cc1)C2 (configuration not stated): -8.85
- O=C(NCCc1ccc(I)s1)N1CCC1: -2.1
- CC(NC(=O)c1cccc[n+]1[O-])C1CC1 (configuration not stated): -4.24
- O=C1CC(c2ccccc2)C2(CCN(CC3CC3)CC2)N1 (configuration not stated): -5.14
- CCCc1n[nH]c(C2CN(Cc3ncc[nH]3)CCO2)n1 (configuration not stated): 4.94
- COCCNC(=O)Nc1cccc2c1CCN(S(C)(=O)=O)C2: -0.282
- CC(=O)N1CCC(CCc2ccnc(Nc3ccccn3)c2)CC1: 26.8
- COCCN1CCC2(CCN(Cc3cccs3)CC2)C1=O: 16.2
- CO[C@H]1CCN(S(=O)(=O)N(C)C)[C@@H]2CN(Cc3cccnc3)C[C@H]12: -5.31
- CC(=O)NCC(=O)N1Cc2cc(C#N)ccc2C1c1cnco1 (configuration not stated): 25.2
- CC[C@@]1(O)CCN(Cc2cc(C3CCCCC3)no2)C[C@H]1O: -2.92
- CN(Cc1cnccn1)CC1CCOc2ccccc2C1 (configuration not stated): -12.2
- O=C(Cc1cccnc1)N1C[C@H]2CC[C@@H]1CN(Cc1ccc(F)cc1)C2: 9.62
- Cn1cnnc1C1CCN(C(=O)CCCOc2ccccc2F)CC1: -12.8
- NCCCNS(=O)(=O)Cc1ccc(Br)cc1: -9.57
- CCNc1cc2c(nn1)CCN(C(=O)c1ccsc1)C2: -3.61
- CC(C)CNS(=O)(=O)c1ccc(C(=O)N(C)CCc2cn[nH]c2)cc1: -8.39
- COc1ccc(-c2n[nH]cc2CN(C)CCC2CCOCC2)cc1F: -1.66
- COCCN1C(=O)[C@]2(CC[C@@H]3CN(C(=O)NC4CCCC4)C[C@@H]32)N=C1C: -14.1
- COc1c(CNCc2ccccc2-n2ccnc2)c(C)nn1C: 8.51
- O=C(CSc1nnc[nH]1)NCc1sccc1Br: -5.23
- COc1cccc(-c2ncc(CN3C[C@@H]4CC[C@H](C3)N(C)C4=O)s2)c1: -0.692
- CN(C)c1ccc(NC(=O)NCc2ccccn2)cn1: -13.6
- CCN(C)CC(=O)N1CCCC(c2nnc(CN3CCOCC3)n2C)C1 (configuration not stated): -4.67
- CC(C)n1ccc(C(=O)OCC2CC(=O)N(Cc3ccccc3)C2)n1 (configuration not stated): -8.67
- CCN(C(C)=O)c1nc(CN2CCCCC2Cn2cncn2)cs1 (configuration not stated): -3.03
- Cc1ccc(CN2CCCC(c3nnc(CN4CCCC4)n3C)C2)s1 (configuration not stated): -0.483
- CC(C)CCc1noc(C[S+]([O-])CC(=O)NCc2ccccc2)n1 (configuration not stated): -1.48
- Cc1cnn(CCNCc2csc(-c3ccco3)n2)c1: 18
- CS(=O)(=O)N1CCC(CSc2ccccc2)C1 (configuration not stated): -13.4
- CC(C)(C)c1cc(=O)[nH]c(-c2ccccc2CN2CCC[C@@H](O)C2)n1: -2.12
- CC1c2ncc(COCc3ccccn3)n2CCN1C1CCCC1 (configuration not stated): -2.61

* * *

- assay.details: Human HepG2 cell viability assay in 384 well format
- Type: toxicity, cell-based
- Parameters: dose 125 nL, time 70.5 hour; concentration not given beside the values
- measurement.context: HepG2 cells, read-out: Inhibition
Parameter: cytotoxicity at 70.5 h. Scope: all listed entries.
endpoint: cytotoxicity at 70.5 h (%)

- OC1(CNCCc2csc(-c3ncccn3)n2)CCNC1 (stereo not given): -14.5
- CC(C)c1noc(C2CCCN2S(=O)(=O)Cc2ccc(F)cc2)n1 (stereo not given): 0.0647
- CC(C1CCN(Cc2ccc(N(C)C)nc2)CC1)N(C)C (stereo not given): -2.39
- O=C(C1CCOC1)N1CCc2ncc(CNc3ccccn3)n2CC1 (stereo not given): 0.605
- CN1C[C@@H](C(=O)NC(C)(C)C)[C@@]2(CCc3ccccc3C(=O)N2)C1: 0.823
- CN(C)C(=O)C1CCCN(C(=O)c2ccccc2-n2cc(CN)cn2)C1 (stereo not given): 48.5
- Cc1noc(C)c1CN(C)C(C)c1cccs1 (stereo not given): -3.21
- Cc1ccc(NC2CCN(C(=O)c3ccncc3)CC2)nn1: -12.4
- CC(=O)N[C@@H](C)C(=O)NCc1cccnc1Oc1ccccc1F: -11.6
- CCN(CC)C(=O)Nc1cccc(Oc2ccccn2)c1: 20.3

* * *

- assay.details: Human HepG2 cell viability assay in 384 well format
- Assay type: toxicity, cell-based
- Design: dose 125 nL, time 70.5 hour; concentration not given beside the values
- measurement.context: HepG2 cells, read-out: Inhibition
Parameter: cytotoxicity at 70.5 h. Scope: all listed entries.
endpoint: cytotoxicity at 70.5 h (%)

- COc1cccc(C2SCC(=O)Nc3ccsc32)c1OC (configuration not stated): 1.7
- CCC(Cn1ccc2[nH]c(=O)c(C#N)cc2c1=O)OC (configuration not stated): -6.98
- CN(C)[C@@H]1CCN(c2ncc(F)cn2)[C@H]1Cc1ccncc1: -5.64
- CCN(CC)C(=O)[C@@H]1C[C@H](NC(=O)c2cccn2C(C)C)CN1C: -9.19
- O=C(NC[C@H]1OC[C@@H](NC(=O)c2ccccc2)[C@@H]1O)c1ccncc1: -0.603
- O=C(CC1CCc2ccccc21)NC1(C(=O)O)CCCC1 (configuration not stated): 22.9
- CC(C)NC(=O)N1CCC2(CC1)NC(=O)[C@H]1CN(C(=O)N(C)C)C[C@H]12: -3.94
- CN1CCCn2c(nc(CNS(=O)(=O)C3CC3)cc2=O)C1: -1.98
- Cc1cnc(CN2CCCCC2c2nc(-c3ccccc3)no2)cn1 (configuration not stated): -7.59
- CC(=O)c1ccc(S(=O)(=O)NCC2CCN(c3cnccn3)CC2)cc1: -4.91
- c1cncc(CN2CCc3ncnc(C4CC4)c3CC2)c1: 2.26
- Cc1cccnc1CNCC1(O)CCCN(Cc2ccc(F)cc2)C1=O (configuration not stated): 23.1
- Cc1ccc(C(=O)N2CCCCC2c2[nH]ncc2S(C)(=O)=O)s1 (configuration not stated): 12.5
- COc1ccc2c(c1)CCCN2C(=O)CN1CCOC(C)C1 (configuration not stated): 0.691
- Cc1cc(CC(=O)NCC(O)COc2ccc(F)c(F)c2)n[nH]1 (configuration not stated): 17.8
- CCC(CC)C(=O)NCc1cn2cc(Br)ccc2n1: -8.77
- Cc1cc(C(=O)N2CCCC(c3nccn3Cc3ccncc3)C2)no1 (configuration not stated): -12.9
- COCc1ncc(CN2C[C@@H](C(=O)O)[C@H](C(C)C)C2)cn1: 9.21
- O=C1CC2(CCN(CC3CC3)CC2)CN1Cc1cc(F)cc(F)c1: -2.81
- Cc1ccccc1-n1cnnc1SCC1CCCCO1 (configuration not stated): -9.11
- CCn1cc(C(=O)Nc2cc(C)ccc2C)cn1: 17
- CCc1nnc2n1CCN(C(=O)C1CCC(n3cccc3)CC1)C2 (configuration not stated): -6.9
- O=C(Nc1ccc(CCN2CCOCC2)cc1)C1CCC1: -3.21
- Cc1nc(CN2CCCC2Cn2cccn2)nc2ccccc12 (configuration not stated): 7.51
- CCC(CC)C(=O)NCc1c(C)nn(C)c1N1CCCN(C)CC1: 22.5
- CN(CCO)C[C@@H]1CN(C(=O)c2cccc(OC(F)F)c2)C[C@@H]1CO: -5.3
- CCn1cc(NC(=O)c2cc(C)nc(N3CCOCC3)n2)cn1: -10.6
- Cc1nn(C)c(C)c1CNC1CCOc2ccccc21 (configuration not stated): -8.58
- COC(=O)N1CCC(Nc2ccc(Cl)c(C#N)n2)C1 (configuration not stated): -2.14
- CC(C)(NCC(=O)NCCC#N)c1ccc2c(c1)OCCO2: -10.6
- C=C/C=c1\c(=C/C)oc2c(NCc3ccccc3)ncnc12: 10.6
- Cc1cc2c(c(-c3c[nH]c(C)n3)c1)OC(CN)C2 (configuration not stated): 2.12
- Cc1nc(N2CCN(C(=O)c3ccc(O)cc3)CC2)c2cnn(C)c2n1: -18.5
- CN(Cc1cccc2cccnc12)C1CCS(=O)(=O)C1 (configuration not stated): 24.2
- CNC(=O)[C@@H](CC(C)C)N1CCC[C@H]1C(=O)N(C)Cc1ccccc1: -7.93
- CCn1ncnc1CN1CCC(CNC(=O)c2cccnc2O)C1 (configuration not stated): -4.94
- CN1C[C@@H]2CN(C(=O)NCc3ccccc3)CCC[C@]2(C(=O)O)C1: -1.78
- Cc1cc(C(=O)N2CCC(c3nnc(Cn4ccnc4)n3C)CC2)cs1: -9.51
- Cc1nc(CN2C(=O)C[C@@H]3[C@@H]2CCN3Cc2cnn(C)c2)cs1: -15.4
- Cc1csc(N2CCCN(C(=O)c3occc3C)CC2)n1: 1.54
- Cc1ccc2[nH]c(CNC(=O)C3CC4(CCNCC4)CN3C)nc2c1C (configuration not stated): 50.4
- COc1ccccc1OCC(=O)NS(=O)(=O)c1ccc(Cl)cc1F: 13.3
